Tested on: CHO-K1
procedure.details: Toxicity of flavonoids: CHO-K1 transiently transfected with pSEAP2-Control, SEAP levels after 48 h
measurement.conditions: 0, 25, 50 μM, genistein cytotoxic only at 50 μM
value.type: compound-related cytotoxicity / cell viability

- O=C1C[C@@H](c2ccc(O)cc2)Oc2cc(O)cc(O)c21: cytotoxic
- O=c1c(-c2ccc(O)cc2)coc2cc(O)cc(O)c12: cytotoxic
